The reported numbers originate from ChEMBL document CHEMBL3507680.

The compounds listed here are annotated with their cytotoxicity at 70.5 h.
EXPERIMENTAL PROTOCOL: Human HepG2 cell viability assay in 384 well format
Type: toxicity, cell-based
Set-up: dose 125 nL, time 70.5 hour; concentration not given beside the values
CONDITIONS: HepG2 cells, read-out: Inhibition
Could you give me the number in %? Just the number is fine.

INSERT INTO assay_data (compound, recorded_measurement) VALUES
  ('CN(C)C(=O)COC1COC2(CCN(CC3CC3)CC2)C1 (stereo not drawn)', -5.8),
  ('O=C(Cn1ccc2ccc(F)cc21)NC[C@@H]1CCCN2CCCC[C@H]12', 8.28),
  ('CN1CCC2(CC1)CN(C(=O)c1onc3ccccc13)CCCN2C', 26.8);

Briefly, cytotoxicity at 70.5 h measured for CC(=O)N1CCN(C(=O)CN2CCCC2Cn2nc(C)cc2C)CC1 (stereo not drawn) : 11.5

Briefly, cytotoxicity at 70.5 h measured for Cc1nnc2n1CCN(c1nc3ccccc3o1)C2 : 1.55

Briefly, cytotoxicity at 70.5 h measured for Cc1nc(C(=O)N(CC(=O)N(C)C)CC(F)(F)F)c2ccccn12 : -4.52

Briefly, cytotoxicity at 70.5 h measured for c1cnn(CC2CCN(c3nc(C4CC4)nc4c3CCNCC4)CC2)c1 : -0.96

Briefly, cytotoxicity at 70.5 h measured for CCNC(=O)[C@@H]1C[C@@H](N)CN1C(=O)CCc1ccc(C)c(C)c1 : -10.5
